measurement.protocol: compounds binding Alexa647 anti-His antibody – biochemical, small-molecule microarray, 635 nm fluorescence, artefact control for SMM control protein annotation, primary screen (AID 1128);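 further: score merges feature fluorescence with signal-to-noise for each printed compound spot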
assay.context: higher = more signal
Below, each of the compounds is paired with its reported composite z-score value.
Answer field: number only, no words.

Before answering, review these 4 worked examples.
compound	measured.value
CC(C)C[C@@H]1NC(=O)[C@@H]2C[C@H](C(=O)NCCCCCCN)[C@H](c3cccc(OCCO)c3)N2C1=O	2.25
C=CCNC(=O)[C@@H]1[C@H]2C(=O)O[C@H](c3ccccc3)[C@H](c3ccccc3)N2[C@H](c2ccc(OCCO)cc2)[C@@]12C(=O)N(C(=O)OCCOC)c1ccc(C#Cc3ccc(OC)cc3)cc12	0.81
O=C(Cc1ccccc1)[C@H]1C2C=CCCC(c3ccccc3)=C2CN1Cc1ccccc1 (stereo not given in full)	-0.162
C=C[C@@H](OC)[C@H](OC(=O)Nc1ccc(OC)cc1)c1ccc(O)c(F)c1	0.0143

Next, consider the following compound.
Ask | Tell me the measured composite z-score of CC(C)=C1C(=O)C(c2ccccc2)=C2CN3C(=O)N(CCc4ccccc4)C(=O)[C@]3(Cc3ccc(C(F)(F)F)cc3)[C@H]21 , please.
Reply | -0.0822

###

measurement.protocol: binders of probe aHhip on microarray, primary screen, stem cell growth factor project, biochemical, small-molecule microarray, fluorescence 635/667 (AID 1087);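 further: score merges spot fluorescence at 667nm with spot signal to noise ratio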
assay.context: higher = more signal
measured.property: composite z-score
Answer field: number only, no words.

CCCC=C(CCC)[C@@H](NC(=O)C(C)(C)C)c1ccc(C(=O)OC)cc1 -0.115

Ask | Tell me the measured composite z-score of [N-]=[N+]=Nc1ccccc1[C@@H]1OC(c2ccc(OCCCO)cc2)=N[C@]1(Cc1ccccc1)C(=O)N1CCCCC1 , please.
Reply | 0.249

Ask | Record: [N-]=[N+]=NCc1ccccc1C[C@@]1(C(N)=O)N=C(c2ccc(OCCCO)cc2)O[C@@H]1c1ccccc1
Reply | 0.107

###

measurement.protocol: COS7 lysate on small-molecule microarray, probe aHis, 635 nm (AID 1123);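 further: z-score combines 667nm fluorescence intensity with signal-to-noise per printed compound spot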
assay.context: COS7 cell lysate, fluorescence, higher = more signal
measured.property: composite z-score
Answer field: number only, no words.

Before answering, review these 2 worked examples.
molecule	composite z-score
C[N+](C)(C)CCCC[C@@H]1NC(=O)[C@@H]2C[C@H](C(=O)NCCCCCCN)[C@H](c3cccc(OCCO)c3)N2C1=O	1.54
CC1CC/C=C\[C@H]2OC34C=CCN(Cc5ccccc5)C(=O)[C@H]3N(C(CO)C(C)C)C(=O)[C@@H]4C2C(=O)O1 (stereo partly drawn)	0.152

Next, consider the following molecule.
Ask | Tell me the measured composite z-score of COCCOC(=O)N1C(=O)[C@@]2(c3cc(C#CC4=CCCCC4)ccc31)[C@H](c1ccccc1OCCO)N1[C@H](c3ccccc3)[C@H](c3ccccc3)OC(=O)[C@H]1[C@@H]2C(=O)N1CCN(c2ncccn2)CC1 , please.
Reply | 0.634

###

measurement.protocol: changes in parasitized red cell lysis, either direction – P. falciparum Indochina, OD700, 3 h, PSAC antagonist project, primary screen (AID 1156)
assay.context: P. falciparum-infected erythrocytes, osmotic lysis, higher = more signal, called active from +8 up or from −8 down
The following ranges of z-score define the classes used here: bottom bin (below -0.2), middle bin (-0.2 to below 0.8), top bin (0.8 or more)

compound	discrete.label
COCCCNC(=O)[C@@]1(Sc2ccc(C)cc2)CC(=O)N(C2Cc3ccccc3C2)[C@@H]1c1ccc(CO)cc1	top bin

Ask | Which bin, given its z-score, does CCCC=C(CCC)[C@@H](NS(=O)(=O)c1ccc(C(F)(F)F)cc1)c1ccccc1 occupy?
Reply | middle bin

Ask | Record: CC(c1ccccc1)C(O)C1C=CC2C(=O)N(C)C(=O)C2N1Nc1ccccc1 (stereo not given)
Reply | middle bin

Ask | Record: CC(C)(C)OC(=O)COc1cccc(C(=O)CCN2CCOCC2)c1
Reply | bottom bin

Ask | Record: C=CCNC(=O)[C@H]1[C@@H]2C(=O)O[C@@H](c3ccccc3)[C@@H](c3ccccc3)N2[C@@H](c2ccccc2OCCO)[C@]12C(=O)N(C(=O)OCCOC)c1ccc(C#CC3(O)CCCCCC3)cc12
Reply | bottom bin

Ask | Record: COC(=O)c1c(CC[C@@H](CO)NC(=O)N2CCC[C@H]2Cn2cc(C3(O)CCCCC3)nn2)oc(C(C)=O)c1C(=O)OC
Reply | top bin

Ask | Record: CCCC[C@@H]1C[C@H]1[C@@H](NC(=O)c1cccs1)c1ccccc1C(F)(F)F
Reply | bottom bin

Ask | Record: CCCCCCCCCCC(O)C1C=CC2C(=O)N(c3ccccc3)C(=O)C2N1Nc1ccc(C#N)cc1 (stereo not given)
Reply | middle bin

Ask | Record: COCCOC(=O)N1C(=O)[C@@]2(c3cc(C#CCCO)ccc31)[C@H](c1ccc(OCCO)cc1)N1[C@H](c3ccccc3)[C@H](c3ccccc3)OC(=O)[C@H]1[C@@H]2C(=O)Nc1nc2ccccc2s1
Reply | middle bin

Ask | Record: [N-]=[N+]=Nc1ccccc1C[C@@]1(C(=O)NCCN2CCOCC2)N=C(c2ccc(OCCCO)cc2)O[C@@H]1c1ccccc1N=[N+]=[N-]
Reply | top bin

Ask | Record: COC(=O)[C@@H]1N=C(c2ccc(OCCCO)cc2)O[C@@H]1c1ccccc1
Reply | bottom bin

Ask | Record: COc1ccc(C#Cc2ccc3c(c2)[C@]2(C(=O)N3)[C@H](c3ccc(OCCO)cc3)N3[C@H](c4ccccc4)[C@H](c4ccccc4)OC(=O)[C@H]3[C@@H]2C(=O)NC[C@H](O)c2ccccc2)cc1
Reply | bottom bin

Ask | Record: COC(=O)[C@]1(CCS(=O)(=O)c2ccccc2)N=C(c2ccc(OCCCO)cc2)O[C@@H]1c1ccccc1N=[N+]=[N-]
Reply | top bin

Ask | Record: CC1CC/C=C\[C@H]2OC34C=CCN(c5ccc6ccccc6c5)C(=O)[C@H]3N(CCCO)C(=O)[C@@H]4C2C(=O)O1 (stereo not given in full)
Reply | middle bin

###

measurement.protocol: probe aInhba binding on compound microarray – biochemical, small-molecule microarray, 635/667 nm fluorescence, primary screen (AID 1148);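 further: score merges 667nm spot fluorescence with signal-to-noise for antibody binding to printed compounds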
assay.context: higher = more signal
Below, each of the molecules is paired with its reported composite z-score value.
Answer field: number only, no words.

Before answering, review these 10 worked examples.
molecule	composite z-score
COc1ccc([Si](C)(C)[C@@H]2[C@@H](CCO)O[C@]3(C(=O)N(Cc4ccccc4)c4ccc(N5C(=O)c6cccc7cccc5c67)cc43)[C@H]2C)cc1	-0.179
CCOC(=O)[C@@H]1CCCCN1C(=O)C(=O)OC	0.0118
COc1cc(NN2C(C(O)c3ccco3)C=CC3C(=O)N(C)C(=O)C32)cc(OC)c1OC (stereo unspecified)	0.288
O=C1OCCC=C[C@H]2OC34C=CCN(Cn5nnc6ccccc65)C(=O)[C@H]3N(CCCO)C(=O)[C@@H]4C12 (stereo partly specified)	-0.161
CN(C)c1ccc(C(O)C2C=CC3C(=O)NC(=O)C3N2Nc2ccccn2)cc1 (stereo unspecified)	-0.152
CCCC[C@@H](O)C1=C(COC)C[C@H]2C(=O)N(C)C(=O)[C@H]2[C@H]1CO	-0.128
COc1ccc([Si](C)(C)[C@@H]2[C@@H](CCO)O[C@]3(C(=O)N(Cc4cccc(NC(=O)[C@H](C)O)c4)c4ccccc43)[C@H]2C)cc1	-0.128
O=C(O)[C@@H]1C[C@@H]2C(=O)N3CCC[C@H]3C(=O)N2[C@@H]1c1ccc(O)cc1	0.0586
CC(C)[Si](C#CCCCC#N)(O[C@H](c1ccccc1)c1cn(Cc2ccccc2)nn1)C(C)C	-0.157
CC(C)(C)OC(=O)COc1cccc(C(=O)CCN2CCOCC2)c1	0.034

Ask | Tell me the measured composite z-score of COCCOC(=O)N1C(=O)[C@@]2(c3cc(C#CC4(O)CCCCCC4)ccc31)[C@H](C(=O)Nc1nc3ccccc3s1)[C@H]1C(=O)O[C@H](c3ccccc3)[C@H](c3ccccc3)N1[C@@H]2c1ccc(O)cc1 , please.
Reply | 0.117

Ask | Record: CC(C)[Si]1(C(C)C)OCc2cc(-c3ccc(-c4ccc(Cl)c(Cl)c4)o3)nc(-c3ccccc3)c21
Reply | -0.295

Ask | Record: CO[C@H]1O[C@H](CO)[C@@H](OC(=O)Nc2ccccc2)[C@H](OC(=O)c2cc3ccccc3[nH]2)[C@H]1OC(=O)c1cc2ccccc2[nH]1
Reply | 0.0636

Ask | Record: O=C1OCCC/C=C\[C@H]2OC34C=CCN(c5ccc6ccccc6c5)C(=O)[C@H]3N(CCO)C(=O)[C@@H]4C12 (stereo partly specified)
Reply | -0.299

Ask | Record: C=CCC(OC(C)=O)[C@@H]1[C@@H](N(Cc2ccc(-c3cccc(C(F)(F)F)c3)o2)C(=O)c2ccc(-c3ccccc3)cc2)c2cc(OCCCO)ccc2N1C(=O)Cc1ccc2ccccc2c1 (stereo partly specified)
Reply | -0.113

Ask | Record: COc1cc2c(cc1O)C=[N+](Cc1sc3ccccc3c1Cl)CC2
Reply | -0.0308
